Target: UniProtKB P17948
Sequence (P17948 27-1338): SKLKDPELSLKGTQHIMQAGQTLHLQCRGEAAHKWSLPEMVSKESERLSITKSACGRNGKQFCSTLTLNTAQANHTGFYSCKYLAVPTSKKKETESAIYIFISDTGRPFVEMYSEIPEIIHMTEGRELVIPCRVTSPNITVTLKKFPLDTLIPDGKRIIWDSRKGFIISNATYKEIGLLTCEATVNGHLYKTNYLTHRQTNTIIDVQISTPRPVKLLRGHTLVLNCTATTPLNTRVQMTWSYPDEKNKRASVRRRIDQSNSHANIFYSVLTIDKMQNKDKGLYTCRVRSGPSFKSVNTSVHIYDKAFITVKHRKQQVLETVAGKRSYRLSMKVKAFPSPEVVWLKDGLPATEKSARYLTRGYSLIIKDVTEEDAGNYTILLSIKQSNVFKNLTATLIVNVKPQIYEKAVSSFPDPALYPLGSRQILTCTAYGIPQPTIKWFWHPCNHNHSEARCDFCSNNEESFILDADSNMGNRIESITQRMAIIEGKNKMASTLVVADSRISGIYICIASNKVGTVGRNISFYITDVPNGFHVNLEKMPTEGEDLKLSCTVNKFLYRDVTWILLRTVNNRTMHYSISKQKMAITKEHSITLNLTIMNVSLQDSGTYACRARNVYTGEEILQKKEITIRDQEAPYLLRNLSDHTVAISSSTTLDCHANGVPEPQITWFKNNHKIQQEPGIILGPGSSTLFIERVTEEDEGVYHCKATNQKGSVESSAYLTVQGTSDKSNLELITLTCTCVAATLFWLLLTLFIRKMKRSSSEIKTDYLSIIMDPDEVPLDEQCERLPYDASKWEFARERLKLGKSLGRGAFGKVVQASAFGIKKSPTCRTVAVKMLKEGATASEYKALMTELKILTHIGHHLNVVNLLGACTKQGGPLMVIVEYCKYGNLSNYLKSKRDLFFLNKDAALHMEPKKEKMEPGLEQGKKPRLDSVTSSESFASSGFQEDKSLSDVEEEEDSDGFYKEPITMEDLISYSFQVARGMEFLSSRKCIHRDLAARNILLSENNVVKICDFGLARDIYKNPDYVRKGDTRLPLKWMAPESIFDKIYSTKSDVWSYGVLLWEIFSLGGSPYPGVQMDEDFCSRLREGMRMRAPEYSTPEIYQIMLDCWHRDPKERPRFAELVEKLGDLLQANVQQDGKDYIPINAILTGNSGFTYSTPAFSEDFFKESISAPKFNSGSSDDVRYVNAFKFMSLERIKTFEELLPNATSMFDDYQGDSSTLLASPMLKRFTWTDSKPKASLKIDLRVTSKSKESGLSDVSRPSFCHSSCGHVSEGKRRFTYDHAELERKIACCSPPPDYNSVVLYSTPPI
pIC50: −log10 of the molar value.
observation-type: pIC50

* Cc1cc2cc(Oc3ccnc(Nc4cccc(CS(=O)(=O)NCCN(C)C)c4)n3)ccc2[nH]1 | 8.70

----------
Biological target: FGFR1 (Homo sapiens, UniProt P11362)
Sequence (P11362 22-822): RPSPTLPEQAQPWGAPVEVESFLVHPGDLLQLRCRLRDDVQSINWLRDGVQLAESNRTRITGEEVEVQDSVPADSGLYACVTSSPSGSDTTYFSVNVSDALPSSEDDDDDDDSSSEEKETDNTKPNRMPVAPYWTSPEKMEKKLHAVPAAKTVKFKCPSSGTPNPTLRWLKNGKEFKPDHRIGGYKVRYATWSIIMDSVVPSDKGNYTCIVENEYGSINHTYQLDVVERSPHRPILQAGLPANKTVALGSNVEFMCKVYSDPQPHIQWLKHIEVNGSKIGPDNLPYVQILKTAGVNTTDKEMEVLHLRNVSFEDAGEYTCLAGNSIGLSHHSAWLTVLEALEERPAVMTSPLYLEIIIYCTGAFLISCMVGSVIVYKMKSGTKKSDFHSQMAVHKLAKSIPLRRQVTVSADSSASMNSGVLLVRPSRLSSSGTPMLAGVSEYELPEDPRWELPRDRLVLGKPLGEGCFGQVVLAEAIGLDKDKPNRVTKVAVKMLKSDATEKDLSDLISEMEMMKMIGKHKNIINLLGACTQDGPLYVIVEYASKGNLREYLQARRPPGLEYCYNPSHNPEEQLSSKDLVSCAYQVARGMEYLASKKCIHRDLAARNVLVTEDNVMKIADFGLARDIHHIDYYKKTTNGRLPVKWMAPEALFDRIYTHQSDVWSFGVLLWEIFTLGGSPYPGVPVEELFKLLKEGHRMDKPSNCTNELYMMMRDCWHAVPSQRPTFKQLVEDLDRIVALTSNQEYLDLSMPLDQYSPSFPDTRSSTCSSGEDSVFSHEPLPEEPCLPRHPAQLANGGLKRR
observation-type: IC50 (nM)

• Cc1cc2cc(Oc3ccnc(Nc4cccc(CS(=O)(=O)NCCN(C)C)c4)n3)ccc2[nH]1 = 15

----------
Target: 278 other kinases
Experiment: kinase selectivity profile (broad kinase screening)
observation-type: IC50

* Cc1cc2cc(Oc3ccnc(Nc4cccc(CS(=O)(=O)NCCN(C)C)c4)n3)ccc2[nH]1 | > 0.15 µM

----------
Biological target: CSF1R (Homo sapiens, UniProt P07333)
Sequence (P07333 20-972): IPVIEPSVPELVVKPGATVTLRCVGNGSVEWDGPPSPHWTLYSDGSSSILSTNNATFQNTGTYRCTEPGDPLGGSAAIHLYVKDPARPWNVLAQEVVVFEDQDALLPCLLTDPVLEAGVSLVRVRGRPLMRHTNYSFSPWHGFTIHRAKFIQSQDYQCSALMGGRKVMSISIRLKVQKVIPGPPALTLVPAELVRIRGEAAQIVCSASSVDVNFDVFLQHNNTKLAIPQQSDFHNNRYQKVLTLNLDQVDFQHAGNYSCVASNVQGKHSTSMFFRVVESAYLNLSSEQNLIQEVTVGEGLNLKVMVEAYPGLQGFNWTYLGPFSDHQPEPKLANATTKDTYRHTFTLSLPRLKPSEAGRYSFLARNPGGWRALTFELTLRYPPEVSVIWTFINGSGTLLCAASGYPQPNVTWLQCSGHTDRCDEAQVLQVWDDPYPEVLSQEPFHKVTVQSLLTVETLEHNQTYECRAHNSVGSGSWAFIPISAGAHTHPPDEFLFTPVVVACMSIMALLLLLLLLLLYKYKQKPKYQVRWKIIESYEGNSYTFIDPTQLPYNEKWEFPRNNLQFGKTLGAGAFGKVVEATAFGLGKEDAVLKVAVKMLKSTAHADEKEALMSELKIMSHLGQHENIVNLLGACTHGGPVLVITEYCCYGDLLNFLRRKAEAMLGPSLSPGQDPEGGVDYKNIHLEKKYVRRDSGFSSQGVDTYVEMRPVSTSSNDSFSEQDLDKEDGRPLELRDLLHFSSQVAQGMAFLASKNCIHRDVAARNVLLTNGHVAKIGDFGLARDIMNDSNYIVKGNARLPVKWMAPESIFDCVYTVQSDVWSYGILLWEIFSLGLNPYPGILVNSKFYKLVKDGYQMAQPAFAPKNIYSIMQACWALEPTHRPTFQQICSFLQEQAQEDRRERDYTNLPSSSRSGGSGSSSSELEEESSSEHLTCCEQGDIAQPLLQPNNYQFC
pIC50: −log10 of the molar value.
observation-type: pIC50

• Cc1cc2cc(Oc3ccnc(Nc4cccc(CS(=O)(=O)NCCN(C)C)c4)n3)ccc2[nH]1 [Sulfatinib] = 8.40
